Ref: patent US20260297085A1

target: human TYK2 kinase domain (JH1) (Homo sapiens); construct: recombinantly generated catalytic kinase (also known as JH1) domain of human JAK1, JAK2, JAK3 and TYK2; assay: JH1 biochemical assay for TYK2 (ADP-Glo kinase assay, recombinant JH1 catalytic domain, JAK3-974 peptide, 10 μM ATP); conditions: TYK2 JH1, ADP-Glo
Sequence (P29597 897-1176 limits assumed): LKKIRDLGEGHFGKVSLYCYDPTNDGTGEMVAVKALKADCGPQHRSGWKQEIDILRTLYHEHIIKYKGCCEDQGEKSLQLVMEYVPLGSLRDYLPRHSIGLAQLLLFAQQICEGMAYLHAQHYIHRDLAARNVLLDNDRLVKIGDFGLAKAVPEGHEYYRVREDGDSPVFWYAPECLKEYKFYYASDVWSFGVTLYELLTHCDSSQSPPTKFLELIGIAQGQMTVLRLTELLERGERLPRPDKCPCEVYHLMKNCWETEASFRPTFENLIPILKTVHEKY
Counter-ions that a name gives are not always drawn.
valueType: IC50

[
  {
    "molecule": "C[C@@H]1CN(c2nc(-c3cnc4c(c3)OCC(=O)N4C)cn3nccc23)C(=O)[C@]1(C#N)C1CC1 [Example 235, trifluoroacetate]",
    "IC50": "< 5 nM"
  },
  {
    "molecule": "C[C@@H]1CN(c2ccnn3cc(-c4cnn([C@H]5C[C@@H](C#N)C5)c4)cc23)C(=O)[C@]1(C#N)C1CC1",
    "IC50": "< 5 nM"
  },
  {
    "molecule": "C[C@@H]1CN(c2nc(-c3cccc4cnn(C)c34)cn3nccc23)C(=O)[C@]1(C#N)C1CC1",
    "IC50": "> 100 nM"
  }
]

Which value of IC50 has been reported for C[C@@H]1CN(c2ccnc3cc(-c4cnn(C56CC(C5)C6)c4)oc23)C(=O)[C@]1(C#N)C1CC1 in the records?
< 5 nM
